test system: UCD52 (cells of a triple-negative basal-like breast cancer xenograft); test: cell viability (% of vehicle); higher = less cytotoxic; details: 10 µM; 72 h;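 note: PDX cells carrying CMV promoter-driven luciferase, viability read as total photon flux per second by IVIS imaging following D-luciferin, vehicle control 0.1% DMSO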
Binary label based on cell viability with cut-off 80: below gives true, not below gives false.

Cc1ccc(C)c(OCCCC(C)(C)C(=O)O)c1 : false
Cc1onc(-c2ccccc2)c1-c1ccc(S(N)(=O)=O)cc1 : true
Cc1cc(C=CC#N)cc(C)c1Nc1ccnc(Nc2ccc(C#N)cc2)n1 : false
C[N+](C)(C)CCO.[Cl-] [Choline Chloride] : false
COc1cc2nccc(Oc3ccc(NC(=O)NC4CC4)c(Cl)c3)c2cc1C(N)=O [Lenvatinib (E7080)] : true
CC1CCc2cc(F)cc3c(=O)c(C(=O)O)cn1c23 (centres undefined) : false
C#CC1(O)CCC2C3CCc4cc(O)ccc4C3CCC21C (centres undefined) : false
Cl.O=C1CN2Cc3c(ccc(Cl)c3Cl)NC2=N1 [Anagrelide HCl] : false
